Each recorded value in this set is attributed to patent US20230250157A1.

For each of the binders below, state its EC50.
TGT: RsSTT200 RBD
ASSAY METHOD TEXT: ELISA

Q: Using known records, supply EC50 for M8a-15 (antibody, V domains shown) VH: QVQLQQSGPELARPGASVKLSCRASGYTVTSFGLSWMKQRTGQGLEWIGEIYPTSKNTYYNDKFRTKATLTADKSSSTAYMELRSLTSEDSAVYFCVLYDYFDYWGQGTTLTVSS VL: QIVLTQSPAIMSASPGEKVTISCSASSSVSYMYWYQQKTGSSPKPWIYRTSNLASGVPVRFSGSGSGTSYSLTISSMEAEDAATYYCQQYQSYPRTFGGGTKLEIK
Ans: > 10 mg/L

Q: Using known records, supply EC50 for M8a-29 (antibody, V domains shown) VH: EVQLQQSVAELVRPGASVKLSCTASGFNIKNTYMHWVKQRPEQGLEWIGRIDPSIDHTRYAPKFQGKAVITAFTSSNTAYLQLSSLTSEDTAIYYCAREGGGNYPYYYAIDYWGQGTSVTVSS VL: DIVMTQAAFSNPVTLGTSASISCRSTKSLLHSNGITYLYWYLQKPGQSPQLLIYQMSNLASGVPDRFSSSGSGTDFTLRISRVEAEDVGVYYCAQNLELPYTFGGGTKLEIK
Ans: > 10 mg/L
